Assay: NCI Yeast Anticancer Drug Screen. Data for the mec2-1 strain (AID 157)
Conditions: S. cerevisiae mec2-1 strain, at 50.0 µM, stronger effect = higher value
Method: Growth inhibition of yeast strains with defined genetic alterations is measured as a screen for potential anti-cancer activity. Selected strains with alterations in DNA damage repair or cell cycle control were exposed to compounds and growth inhibition was measured relative to vehicle treated controls. The strain used in this assay is mec2-1
The panel holds about 79,000 compounds, 15% with a hit somewhere; the sample as a whole holds those more often.
Entries and their growth inhibition values follow.
Just the number in %, nothing appended.

What value of growth inhibition has been reported for the following compound? CCCCCCCCCCCCOc1ccc(C)cc1
-25

How about O=[N+]([O-])c1ccc2nc3c(nc2c1)-c1cccc2cccc-3c12 ?
-15.9

Can you handle C=CCNC(=S)N/N=C\c1cc(OC)c(OC)c(OC)c1 next?
-44.5

O=C1CC(c2ccccc2)NCCCCN2CC(CN1)C(C(O)c1ccccc1)C2=O (centres undefined) , same question.
-34.8

Next compound up: COC(=O)c1nc(Br)cnc1N
-8.4

Param item: Cc1ccc2c(c1)=N/C(=N\c1nc(O)c(O)[nH]1)N=2
-15.3

Also, O=C(/C=C(\[O-])c1ccccc1)CCCCCCC(=O)/C=C(\[O-])c1ccccc1.O=C(/C=C(\[O-])c1ccccc1)CCCCCCC(=O)/C=C(\[O-])c1ccccc1.O=C(/C=C(\[O-])c1ccccc1)CCCCCCC(=O)/C=C(\[O-])c1ccccc1.[La+3].[La+3] please.
-8.75

Please give the result for COc1c(O)ccc(C2=Cc3ccc(O)cc3OC2)c1OC too.
91.5

Repeat for the following compound: Cc1ccc(/C=N/Nc2nncc3ccccc23)s1
16.1

Next up: CC1=NN(c2ccccc2)C(=O)C1C(=O)c1ccccc1 (centres undefined)
-3.65

Entry to check: CC(=O)c1cccc(OCc2ccccc2)c1
2.75

What about CCCCCCC(=O)C(CCCC)(C(=O)OCC)C(=O)OCC ?
-9.4

S=c1[nH]nc(NC2CCCCC2)s1 , same question.
-12

Next compound: CC1CC(=O)N(N(C)C)C2(C#N)C(=O)N=C(N)C12C#N (centres undefined)
22.6

Consider next the compound O=C(O)CCNC(=O)c1ccccc1 in the same way.
-7.4

Moving on to CCn1c2c(c3ccccc3c1=O)C(=O)c1ccccc1-2
3.9

Input Cc1ccc(/C=N/Nc2cnccn2)s1
-25.2
